# assayedTarget: Mu-type opioid receptor (Homo sapiens) (UniProt P35372)
# Sequence (P35372 whole entry, looked up): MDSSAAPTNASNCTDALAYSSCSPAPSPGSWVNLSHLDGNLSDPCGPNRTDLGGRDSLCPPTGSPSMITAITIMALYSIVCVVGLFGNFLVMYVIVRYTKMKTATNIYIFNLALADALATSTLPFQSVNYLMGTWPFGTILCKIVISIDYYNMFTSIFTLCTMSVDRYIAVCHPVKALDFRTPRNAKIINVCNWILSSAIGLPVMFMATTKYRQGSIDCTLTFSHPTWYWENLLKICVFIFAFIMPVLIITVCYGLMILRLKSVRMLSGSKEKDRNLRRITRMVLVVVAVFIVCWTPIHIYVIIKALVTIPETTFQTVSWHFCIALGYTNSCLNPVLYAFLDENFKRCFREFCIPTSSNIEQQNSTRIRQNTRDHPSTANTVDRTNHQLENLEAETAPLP
# assayOverview: mu-delta opioid heterodimer formation enhancers – cell-based, luminescence, dose response, set 2, late-stage follow-up (AID 651762)
# measurementParameters: luminescence complementation
Active and inactive are the calls of the source. The rule behind the calls is not given here.
Possible outcomes: active, inactive

- CCOC(=O)C1(CCc2ccccc2)CCCN(Cc2ccc(N3CCNC3=O)cc2)C1 (stereo not given): inactive
- CCOC(=O)C1(Cc2ccccc2Cl)CCN(Cc2ccc(NC(C)=O)cc2)CC1: active
- C=Cc1ccc(C(=O)N2CCC(CCCc3ccccc3)(C(=O)OCC)CC2)cc1: inactive
- CCOC(=O)C1(CCOC)CCN(Cc2ccc(N(C)c3ccccc3)cc2)CC1: inactive
- C=Cc1ccc(C(=O)N2CCC(CCc3ccccc3)(C(=O)OCC)CC2)cc1: inactive

* * *

Listed below: EC50 values for each entry.
# assayedTarget: Mu-type opioid receptor (Homo sapiens)
# assayOverview: mu-delta opioid heterodimer formation enhancers – cell-based, luminescence, dose response, set 2, late-stage follow-up (AID 651762)
# measurementParameters: luminescence complementation
Calls of active or inactive are those of the source. No rule for the calls is given here.
recordedEndpoint: EC50

* CC(=O)Nc1ccc(CN2CCCC(CO)(CCc3ccccc3)C2)cc1 (stereo unspecified) | 5.16 µM
* CCOC(=O)C1CCN(C(=O)c2ccc(N(C)C)cc2)CC1 | > 50 µM (inactive)
* CCOC(=O)C1(Cc2cccc(OC)c2)CCCN(Cc2ccc(NC(C)=O)cc2)C1 (stereo unspecified) | > 50 µM (inactive)
* CCOC(=O)C1(Cc2ccccc2)CCCN(Cc2ccc(NC(C)=O)cc2)C1 (stereo unspecified) | > 50 µM (inactive)
* CCOC(=O)C1CCN(CCC(=O)Nc2ccc(C)cc2)CC1 | > 50 µM (inactive)
* CCOC(=O)C1(CCc2ccccc2)CCN(C(=O)Nc2ccc(C)cc2C)CC1 | > 50 µM (inactive)

* * *

# assayedTarget: Mu-type opioid receptor (Homo sapiens) (UniProt P35372)
# assayOverview: mu-delta opioid heterodimer formation enhancers – cell-based, luminescence, dose response, set 2, late-stage follow-up (AID 651762)
# measurementParameters: luminescence complementation
Activity calls are given as the source filed them. No rule for the calls is given here.
Possible outcomes: YES for active, NO for inactive

• CCOC(=O)C1(CC2CC2)CCN(Cc2ccc(NC(C)=O)cc2)CC1 = NO
• CCOC(=O)C1CCN(Cc2ccc(NC(C)=O)cc2)CC1 = NO
• CCOC(=O)C1(CCc2ccccc2)CCN(Cc2c(O)cccc2OC)CC1 = YES
• CCOC(=O)C1(Cc2ccccc2C)CCCN(Cc2ccc(NC(C)=O)cc2)C1 (stereo not drawn) = NO
• CCOC(=O)C1(CCOC)CCN(Cc2ccc(NC(C)=O)cc2)CC1 = NO
• CCOC(=O)C1(CCOC)CCCN(Cc2ccc(NC(C)=O)cc2)C1 (stereo not drawn) = NO
• CCOC(=O)C1(CCc2ccccc2)CCN(Cc2ccc(OC)cc2)CC1 = YES
• CCOC(=O)C1(CCc2ccccc2)CCN(Cc2ccc(O)cc2)CC1 = NO
